# credit: the supplement of paper PMC12042874

Assay: amyloid nucleation score (Sup35N fusion, yeast selection) (log enrichment); library NNK2; higher = more nucleation; inactive = no reads after selection;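 note: zero at mode of non-aggregating sequences after 7 days selection at 30°C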
MEASUREMENT TYPE: amyloid nucleation score

FKKTLTGCYGGGRGAMNNGK : inactive
DFTVSHI : inactive
HEVLTVHNKAFRKYLSCIFR : inactive

---

Assay: amyloid nucleation score (Sup35N fusion, yeast selection) (log enrichment); library NNK3; higher = more nucleation; inactive = no reads after selection
MEASUREMENT TYPE: amyloid nucleation score

Check out these entries, answers already filled in.
YANFVRYNRLVKDRAVRSPK : inactive
FIIWAMDWVFASRL : inactive
NMTTGYGAMGFRVVEAWFGC : 1.13
EFMKGFAWISMFNLRSVLNS : inactive
YFLKDKPVNRMIQ : 1.75
RLMFWRELGLFSKFKLSIQG : inactive
SGVTHDHLTYVLGGGKVVSR : inactive
YLMYLGSFSAMLREKWQL : inactive

Hi, could you look up amyloid nucleation score for each item in my list?
1. DTGFCYKFNYIPVDVIICIC
2. FNKLVWNHLSGCV
3. KDRSCNALWGLDCLYGNKGC

Output:
[1.32, "inactive", -0.197]

---

Experiment: amyloid nucleation score (Sup35N fusion, yeast selection) (log enrichment); library NNK2; higher = more nucleation; inactive = no reads after selection
MEASUREMENT TYPE: amyloid nucleation score

Check out these entries, answers already filled in.
LKLASSGVHCLLFSYCRMAE : 0.69
CKRQYHYLIWRMMEMSPGVL : 5.07
FGLRIKPGEKV : 0.783

Hi, could you look up amyloid nucleation score for each item in my list?
1. LCWLIVGKCGKGKTYDGFIG
2. WLPNRRNVPYAVESVCS
3. MEQELMFREWLW

Output:
1: -0.78; 2: 0.971; 3: -0.284

Hi, could you look up amyloid nucleation score for each item in my list?
1. MHVDVV
2. RSIWMKLCMWIECSDKETRF
3. LYNVVSNTVKYCIFPC
4. RVNEMWIQI
5. GNRDMGVVNGRYVTAVTS
6. PDGAWARLSKSGAEAYLSNF
7. AKWRDRSETYYLYFRISVRI

Output:
-0.352
4.17
7.13
-0.138
0.422
-0.299
-0.493

---

Assay: amyloid nucleation score (Sup35N fusion, yeast selection) (log enrichment); library NNK3; higher = more nucleation; inactive = no reads after selection
MEASUREMENT TYPE: amyloid nucleation score

Check out these entries, answers already filled in.
SMLISRSEHLRLDTFGDSRY : 0.634
YSNVNALISSTSLYLCCCML : 0.644
CRVFRNNDYSKVSFWLVSVF : inactive
NKLCYSSDLYWRVTDKDEHR : inactive
WVDFFMFWGFAMNENKWFVH : inactive

Hi, could you look up amyloid nucleation score for each item in my list?
1. NESFGTARSAGDGMKNVPGP
2. QKIPRDDEPMANQDRLSKIS
3. EVEIRWPCLKVVFLFLVH
4. YLYGGQRVGSF

Output:
["inactive", "inactive", "inactive", "inactive"]

---

Assay: amyloid nucleation score (Sup35N fusion, yeast selection) (log enrichment); library NNK2; higher = more nucleation; inactive = no reads after selection
# binarize amyloid nucleation score: threshold -0.2 inclusive, high side t, low side f

FLRNPPYESTTQGGRPKGAH : t
VRLRTHMFY : f
SWVFVWLSH : f
SLFYVTLAPTSWICGTARC : t
DSVFVFGSHLFLQNSVRGRT : f
LVFGVLQVCVLCSVTDNLGA : t
VFTSGSRCHPWLE : t
HFSDIRAFCFPCNPIMRVMK : f
FMELLYHSASYSARFTRKSR : t
LCDGAMRMCGWMKLGVQLGV : t

Task: Textbook exercise: given the entry "IRFRVLVPNLGKASDRFQVP" , state whether its amyloid nucleation score is greater than or equal to -0.2.
Output: t

Task: Same thing, different substance: "THLHQD"
Output: f

Task: Same thing, different substance: "YSLFTT"
Output: f

Task: Same thing, different substance: "KLVIKLRIIYYASV"
Output: t

Task: Same thing, different substance: "DSGVAHCANPCRPYREPVQS"
Output: t

Task: Same thing, different substance: "THDPNLRCYFVIGTELHSRT"
Output: t

Task: Same thing, different substance: "QPCQSNSINDIHRRAGFGPL"
Output: f

Task: Same thing, different substance: "CKLMMGVFVLTVNTCGDVSS"
Output: t

Task: Same thing, different substance: "HVLFIAKLDFALTEFLRMCE"
Output: t

Task: Same thing, different substance: "QFGYRCTTPC"
Output: t
